# experimental system: Prostaglandin G/H synthase 1 (Bos taurus)
# Sequence (O62664 whole entry): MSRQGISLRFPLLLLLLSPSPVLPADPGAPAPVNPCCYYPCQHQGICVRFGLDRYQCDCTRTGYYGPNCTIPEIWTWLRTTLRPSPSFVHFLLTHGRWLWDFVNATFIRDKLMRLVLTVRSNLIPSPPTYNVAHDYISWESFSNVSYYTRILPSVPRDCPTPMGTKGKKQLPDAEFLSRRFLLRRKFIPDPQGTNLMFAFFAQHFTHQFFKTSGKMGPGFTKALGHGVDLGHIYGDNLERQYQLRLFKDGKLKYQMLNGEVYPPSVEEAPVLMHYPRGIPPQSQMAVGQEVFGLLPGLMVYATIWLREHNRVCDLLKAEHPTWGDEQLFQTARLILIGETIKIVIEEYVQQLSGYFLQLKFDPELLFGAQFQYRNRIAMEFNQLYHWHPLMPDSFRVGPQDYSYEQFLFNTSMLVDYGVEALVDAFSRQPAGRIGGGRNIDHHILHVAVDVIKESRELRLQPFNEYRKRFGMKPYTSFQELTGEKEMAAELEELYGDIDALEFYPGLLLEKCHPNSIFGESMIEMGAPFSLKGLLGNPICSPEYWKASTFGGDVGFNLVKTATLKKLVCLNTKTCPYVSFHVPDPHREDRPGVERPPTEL
metric: pIC50
Hey, just a heads up that pIC50 is the negative log base 10 of the concentration in molar.

molecule	pIC50
Clc1ccc(-c2cn[se]c2-c2ccc(Cl)cc2)cc1	6.70

Query string: Item under review: COc1ccc(-c2cn[se]c2-c2ccc(OC)cc2)cc1 . Reported pIC50?
Result string: 8.22

Query string: Next entry: O=c1c2ccccc2[se]n1-c1ccccc1 [EBSELEN]
Result string: 5.68

Query string: Then COc1ccc(-c2[se]ncc2-c2ccc(Cl)cc2)cc1 ?
Result string: 7.70

Query string: Moving on to Cc1ccc(-c2[se]ncc2-c2ccc(Cl)cc2)cc1
Result string: 7.30

Query string: Same for Cc1ccc(-c2cn[se]c2-c2ccc(Cl)cc2)cc1
Result string: 6.70

Query string: Okay, and COc1ccc(-c2[se]ncc2-c2ccc(C)cc2)cc1 ?
Result string: 7.70

Query string: Same for COc1ccc(-c2cn[se]c2-c2ccc(Cl)cc2)cc1
Result string: 8.00
